src = the supplement of paper PMC6555819

- System: VDR:RXRa (NR concentration 270 nM, RXRa partner concentration 90 nM)
- method-summary: PBM binding z-score (relative to random genomic background probes); higher = stronger binding; sequences stand for … in GC…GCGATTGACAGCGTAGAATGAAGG
Label rule, in plain words: PBM binding z-score of 0.9 and up is Condition met, under 0.9 is Condition not met.

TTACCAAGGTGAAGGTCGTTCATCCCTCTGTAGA | Condition met
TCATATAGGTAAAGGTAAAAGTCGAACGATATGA | Condition not met
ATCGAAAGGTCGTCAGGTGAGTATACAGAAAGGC | Condition met
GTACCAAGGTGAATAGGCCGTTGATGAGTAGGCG | Condition not met
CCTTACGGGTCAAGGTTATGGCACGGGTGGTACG | Condition met
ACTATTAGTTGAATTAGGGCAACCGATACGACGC | Condition not met
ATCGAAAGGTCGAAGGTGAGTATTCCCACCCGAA | Condition met
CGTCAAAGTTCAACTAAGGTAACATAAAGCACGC | Condition met
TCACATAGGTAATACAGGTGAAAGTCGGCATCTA | Condition met
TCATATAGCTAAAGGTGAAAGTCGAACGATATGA | Condition not met
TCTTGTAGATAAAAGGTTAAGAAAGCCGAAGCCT | Condition met
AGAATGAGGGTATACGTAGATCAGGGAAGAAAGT | Condition not met
